Source of measurements: ChEMBL document CHEMBL4033703

TARGET: Mu-type opioid receptor (Mus musculus)
Sequence (P42866 whole entry): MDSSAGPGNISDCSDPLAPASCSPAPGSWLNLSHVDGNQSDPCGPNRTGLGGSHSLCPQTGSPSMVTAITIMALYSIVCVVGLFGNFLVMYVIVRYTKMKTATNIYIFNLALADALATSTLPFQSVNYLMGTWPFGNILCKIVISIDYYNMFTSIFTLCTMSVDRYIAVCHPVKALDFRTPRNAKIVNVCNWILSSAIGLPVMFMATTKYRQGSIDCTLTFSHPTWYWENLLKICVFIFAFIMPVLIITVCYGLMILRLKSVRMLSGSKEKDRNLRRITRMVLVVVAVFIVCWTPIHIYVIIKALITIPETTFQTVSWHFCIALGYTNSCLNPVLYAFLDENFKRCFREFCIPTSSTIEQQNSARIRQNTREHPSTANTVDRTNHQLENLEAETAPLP
ASSAY: Displacement of [3H]DAMGO from mu opioid receptor in mouse whole brain without cerebellum membrane
QUANTITY_MEASURED: Ki (pM)
Output spec: scalar in pM, unitless text.

(Q) Missing value: Ki, Mu-type opioid receptor (Mus musculus), entry C=CCN1CCC23c4cc(O)ccc4CC1C21CCC2C3[C@@H](CN2C(=O)c2ccccc2)O1 (stereo partly specified) . Fill in?
(A) 833

(Q) Missing value: Ki, Mu-type opioid receptor (Mus musculus), entry O=C(c1ccccc1)N1C[C@H]2OC34CCC1C2C31CCN(CCc2ccccc2)C4Cc2ccc(O)cc21 (stereo partly specified) . Fill in?
(A) 548

(Q) Missing value: Ki, Mu-type opioid receptor (Mus musculus), entry COCCCN1CCC23c4cc(O)ccc4CC1C21CCC2C3[C@@H](CN2C(=O)c2ccccc2)O1 (stereo partly specified) . Fill in?
(A) 3940

(Q) Missing value: Ki, Mu-type opioid receptor (Mus musculus), entry CN1CCC23c4cc(O)ccc4CC1C21CCC2C3[C@@H](CN2C(=O)c2ccccc2)O1 (stereo partly specified) . Fill in?
(A) 383

(Q) Missing value: Ki, Mu-type opioid receptor (Mus musculus), entry CC(C)CN1CCC23c4cc(O)ccc4CC1C21CCC2C3[C@@H](CN2C(=O)c2ccccc2)O1 (stereo partly specified) . Fill in?
(A) 4480

(Q) Missing value: Ki, Mu-type opioid receptor (Mus musculus), entry O=C(c1ccccc1)N1C[C@H]2OC34CCC1C2C31CCN(CC2CC2)C4Cc2ccc(O)cc21 (stereo partly specified) . Fill in?
(A) 325

* * *

For each entry below, report its pKi value.
TARGET: Delta-type opioid receptor (Mus musculus, UniProt P32300)
Sequence (P32300 whole entry): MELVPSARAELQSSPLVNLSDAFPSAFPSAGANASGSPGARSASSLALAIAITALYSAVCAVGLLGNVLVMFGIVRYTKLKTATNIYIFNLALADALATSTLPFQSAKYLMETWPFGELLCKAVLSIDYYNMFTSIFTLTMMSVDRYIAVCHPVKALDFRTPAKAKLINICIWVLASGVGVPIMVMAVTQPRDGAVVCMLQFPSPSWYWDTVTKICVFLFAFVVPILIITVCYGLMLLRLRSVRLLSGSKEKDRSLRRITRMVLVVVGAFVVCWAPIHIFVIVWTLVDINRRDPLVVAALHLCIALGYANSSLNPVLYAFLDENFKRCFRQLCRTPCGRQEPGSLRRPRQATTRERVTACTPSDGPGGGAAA
ASSAY: Displacement of [3H]DPDPE from delta opioid receptor in mouse whole brain without cerebellum membrane
When answering, recall that pKi equals minus log10 of the concentration in mol/L, and write that number alone.

(Q) I would be grateful if you could share the reported pKi for O=C(c1ccccc1)N1C[C@H]2OC34CCC1C2C31CCN(CC2CC2)C4Cc2ccc(O)cc21 (stereo partly specified) .
(A) 9.56

(Q) I would be grateful if you could share the reported pKi for O=C(c1ccccc1)N1C[C@H]2OC34CCC1C2C31CCN(CCc2ccccc2)C4Cc2ccc(O)cc21 (stereo partly specified) .
(A) 9.34

(Q) I would be grateful if you could share the reported pKi for C=CCN1CCC23c4cc(O)ccc4CC1C21CCC2C3[C@@H](CN2C(=O)c2ccccc2)O1 (stereo partly specified) .
(A) 9.96

(Q) I would be grateful if you could share the reported pKi for COCCCN1CCC23c4cc(O)ccc4CC1C21CCC2C3[C@@H](CN2C(=O)c2ccccc2)O1 (stereo partly specified) .
(A) 9.43

(Q) I would be grateful if you could share the reported pKi for CN1CCC23c4cc(O)ccc4CC1C21CCC2C3[C@@H](CN2C(=O)c2ccccc2)O1 (stereo partly specified) .
(A) 9.52

(Q) I would be grateful if you could share the reported pKi for CC(C)CN1CCC23c4cc(O)ccc4CC1C21CCC2C3[C@@H](CN2C(=O)c2ccccc2)O1 (stereo partly specified) .
(A) 9.12

* * *

For each entry below, report its pKi value.
TARGET: UniProt P41144
Sequence (P41144 whole entry): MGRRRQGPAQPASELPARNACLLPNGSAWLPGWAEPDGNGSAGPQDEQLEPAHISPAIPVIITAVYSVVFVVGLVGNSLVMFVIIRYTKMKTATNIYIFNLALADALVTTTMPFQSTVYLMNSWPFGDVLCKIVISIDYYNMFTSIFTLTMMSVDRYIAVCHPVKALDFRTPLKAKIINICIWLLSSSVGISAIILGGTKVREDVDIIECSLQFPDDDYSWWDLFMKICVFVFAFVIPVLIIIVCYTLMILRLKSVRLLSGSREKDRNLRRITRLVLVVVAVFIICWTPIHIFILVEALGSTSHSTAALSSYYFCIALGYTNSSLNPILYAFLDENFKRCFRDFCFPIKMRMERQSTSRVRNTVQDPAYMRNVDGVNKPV
When answering, recall that pKi equals minus log10 of the concentration in mol/L, and write that number alone.

(Q) I would be grateful if you could share the reported pKi for COCCCN1CCC23c4cc(O)ccc4CC1C21CCC2C3[C@@H](CN2C(=O)c2ccccc2)O1 (stereo partly specified) .
(A) 7.69

(Q) I would be grateful if you could share the reported pKi for CN1CCC23c4cc(O)ccc4CC1C21CCC2C3[C@@H](CN2C(=O)c2ccccc2)O1 (stereo partly specified) .
(A) 7.50

(Q) I would be grateful if you could share the reported pKi for CC(C)CN1CCC23c4cc(O)ccc4CC1C21CCC2C3[C@@H](CN2C(=O)c2ccccc2)O1 (stereo partly specified) .
(A) 8.20

(Q) I would be grateful if you could share the reported pKi for O=C(c1ccccc1)N1C[C@H]2OC34CCC1C2C31CCN(CC2CC2)C4Cc2ccc(O)cc21 (stereo partly specified) .
(A) 8.92

(Q) I would be grateful if you could share the reported pKi for C=CCN1CCC23c4cc(O)ccc4CC1C21CCC2C3[C@@H](CN2C(=O)c2ccccc2)O1 (stereo partly specified) .
(A) 8.60

(Q) I would be grateful if you could share the reported pKi for O=C(c1ccccc1)N1C[C@H]2OC34CCC1C2C31CCN(CCc2ccccc2)C4Cc2ccc(O)cc21 (stereo partly specified) .
(A) 7.47

* * *

For each entry below, report its Emax value.
TARGET: Mu-type opioid receptor (Homo sapiens, UniProt P35372)
Sequence (P35372 whole entry): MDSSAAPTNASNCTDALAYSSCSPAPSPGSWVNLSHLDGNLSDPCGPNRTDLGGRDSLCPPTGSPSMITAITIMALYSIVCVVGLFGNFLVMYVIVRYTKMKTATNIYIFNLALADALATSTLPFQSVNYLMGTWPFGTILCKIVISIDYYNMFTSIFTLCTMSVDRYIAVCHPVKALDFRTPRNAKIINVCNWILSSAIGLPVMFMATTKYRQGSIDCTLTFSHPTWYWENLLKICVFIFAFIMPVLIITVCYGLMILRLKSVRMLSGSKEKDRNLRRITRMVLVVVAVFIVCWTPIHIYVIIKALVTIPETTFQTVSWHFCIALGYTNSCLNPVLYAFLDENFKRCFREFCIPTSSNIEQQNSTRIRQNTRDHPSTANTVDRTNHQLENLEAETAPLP
ASSAY: Agonist activity at human mu opioid receptor expressed in CHO cells assessed as inhibition of forskolin-induced cAMP accumulation after 30 mins by Eu-cAMP tracer based TR-FRET assay relative to DAMGO
Type: functional, cell-based
Output spec: scalar in %, unitless text.

(Q) Missing value: Emax, Mu-type opioid receptor (Homo sapiens, UniProt P35372), entry COCCCN1CCC23c4cc(O)ccc4CC1C21CCC2C3[C@@H](CN2C(=O)c2ccccc2)O1 (some centres undefined) . Fill in?
(A) 55

(Q) Missing value: Emax, Mu-type opioid receptor (Homo sapiens, UniProt P35372), entry O=C(c1ccccc1)N1C[C@H]2OC34CCC1C2C31CCN(CCc2ccccc2)C4Cc2ccc(O)cc21 (some centres undefined) . Fill in?
(A) 109

(Q) Missing value: Emax, Mu-type opioid receptor (Homo sapiens, UniProt P35372), entry CN1CCC23c4cc(O)ccc4CC1C21CCC2C3[C@@H](CN2C(=O)c2ccccc2)O1 (some centres undefined) . Fill in?
(A) 103

(Q) Missing value: Emax, Mu-type opioid receptor (Homo sapiens, UniProt P35372), entry O=S(=O)(c1ccccc1)N1C[C@H]2OC34CCC1C2C31CCN(CC2CC2)C4Cc2ccc(O)cc21 (some centres undefined) . Fill in?
(A) 54

* * *

TARGET: Delta-type opioid receptor (Homo sapiens, UniProt P41143)
Sequence (P41143 whole entry): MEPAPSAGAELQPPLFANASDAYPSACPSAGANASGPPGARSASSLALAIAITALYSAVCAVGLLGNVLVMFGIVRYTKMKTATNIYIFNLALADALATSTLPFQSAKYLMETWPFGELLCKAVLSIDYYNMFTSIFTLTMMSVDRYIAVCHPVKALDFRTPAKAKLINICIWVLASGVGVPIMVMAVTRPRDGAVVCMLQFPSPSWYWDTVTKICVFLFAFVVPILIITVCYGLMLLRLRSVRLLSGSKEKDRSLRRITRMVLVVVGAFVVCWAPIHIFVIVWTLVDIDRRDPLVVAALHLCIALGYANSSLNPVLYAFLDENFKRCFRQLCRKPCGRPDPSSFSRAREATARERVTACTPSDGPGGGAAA
ASSAY: Agonist activity at human delta opioid receptor expressed in CHO cells assessed as inhibition of forskolin-induced cAMP accumulation after 30 mins by Eu-cAMP tracer based TR-FRET assay
For each entry below, report its EC50 value.
Output spec: scalar in nM, unitless text.

(Q) I would be grateful if you could share the reported EC50 for O=S(=O)(c1ccccc1)N1C[C@H]2OC34CCC1C2C31CCN(CC2CC2)C4Cc2ccc(O)cc21 (some centres undefined) .
(A) 1.2

(Q) I would be grateful if you could share the reported EC50 for CC(C)CN1CCC23c4cc(O)ccc4CC1C21CCC2C3[C@@H](CN2C(=O)c2ccccc2)O1 (some centres undefined) .
(A) 3

(Q) I would be grateful if you could share the reported EC50 for COCCCN1CCC23c4cc(O)ccc4CC1C21CCC2C3[C@@H](CN2C(=O)c2ccccc2)O1 (some centres undefined) .
(A) 1.4

(Q) I would be grateful if you could share the reported EC50 for O=C(c1ccccc1)N1C[C@H]2OC34CCC1C2C31CCN(CC2CC2)C4Cc2ccc(O)cc21 (some centres undefined) .
(A) 0.54

* * *

TARGET: Kappa-type opioid receptor (Homo sapiens, UniProt P41145)
Sequence (P41145 whole entry): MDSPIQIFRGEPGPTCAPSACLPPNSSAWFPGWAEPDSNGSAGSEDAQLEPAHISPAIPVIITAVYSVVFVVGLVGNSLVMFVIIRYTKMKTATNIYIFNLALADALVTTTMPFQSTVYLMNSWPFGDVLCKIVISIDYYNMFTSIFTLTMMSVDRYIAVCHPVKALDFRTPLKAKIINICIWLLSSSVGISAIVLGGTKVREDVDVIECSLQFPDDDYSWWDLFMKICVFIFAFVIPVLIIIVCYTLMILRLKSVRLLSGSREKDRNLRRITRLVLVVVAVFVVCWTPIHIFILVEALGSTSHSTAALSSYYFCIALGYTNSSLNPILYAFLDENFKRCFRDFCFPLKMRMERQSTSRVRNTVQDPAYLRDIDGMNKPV
ASSAY: Agonist activity at human kappa opioid receptor expressed in CHO cells assessed as inhibition of forskolin-induced cAMP accumulation at 10 uM after 30 mins by Eu-cAMP tracer based TR-FRET assay relative to U-69,593
Format: functional, cell-based
For each entry below, report its Emax value.
Output spec: scalar in %, unitless text.

(Q) I would be grateful if you could share the reported Emax for Oc1ccc2c(c1)C13CCN(CC4CC4)C(C2)C12CCC1C3[C@@H](CN1Cc1ccccc1)O2 (stereo partly specified) .
(A) 12

(Q) I would be grateful if you could share the reported Emax for C=CCN1CCC23c4cc(O)ccc4CC1C21CCC2C3[C@@H](CN2C(=O)c2ccccc2)O1 (stereo partly specified) .
(A) 4.2

(Q) I would be grateful if you could share the reported Emax for O=S(=O)(c1ccccc1)N1C[C@H]2OC34CCC1C2C31CCN(CC2CC2)C4Cc2ccc(O)cc21 (stereo partly specified) .
(A) 19

(Q) I would be grateful if you could share the reported Emax for O=C(c1ccccc1)N1C[C@H]2OC34CCC1C2C31CCN(CC2CC2)C4Cc2ccc(O)cc21 (stereo partly specified) .
(A) 2.9

(Q) I would be grateful if you could share the reported Emax for "COCCCN1CC[C@]23Cc4nc5ccccc5cc4C[C@@]2(O)[C@H]1Cc1ccc(O)cc13" .
(A) 14

(Q) I would be grateful if you could share the reported Emax for COCCCN1CCC23c4cc(O)ccc4CC1C21CCC2C3[C@@H](CN2C(=O)c2ccccc2)O1 (stereo partly specified) .
(A) 23
